The reported measurements were obtained from patent US12077503B2.

Entries annotated with measured pest or weed control at 125 g/ha
test system: ryegrass, Italian (Italian ryegrass, Lolium multiflorum); assay: Test A preemergence; type: in vivo; details: Lolium multiflorum, pre-emergence, 240 h, 125 g ai/ha, preemergence; visual injury rating, 0 to 100 scale where 0 is no effect and 100 is complete control; approximately 10 d; read-out: Ryegrass, Italian plant response rating

| smiles.code | scale.unit | pest or weed control at 125 g/ha |
| --- | --- | --- |
| COc1cc([C@H]2CN(C)C(=O)[C@@H]2C(=O)Nc2ccccc2F)ccc1F | % | 0 |
| Cc1cc([C@H]2CN(C)C(=O)[C@@H]2C(=O)Nc2ccccc2F)on1 | % | 0 |
| COc1cc([C@H]2CN(C)C(=O)[C@@H]2C(=O)Nc2cccc(F)c2F)cc(OC)c1OC | % | 20 |
| O=C1NC[C@H](c2csc3c2CCOC3)[C@H]1C(=O)Nc1cccc(F)c1F | % | 0 |
| Cc1c(F)cccc1NC(=O)[C@H]1C(=O)N(C)C[C@@H]1c1ccc2c(c1)C(F)(F)C(F)(F)O2 | % | 60 |
| Cc1c(F)cccc1NC(=O)[C@H]1C(=O)N(C)C[C@@H]1c1ccc(C(F)(F)F)nc1 | % | 70 |
| CN1C[C@H](c2cccc(C#N)c2)[C@@H](C(=O)Nc2ccccc2F)C1=O | % | 0 |
| CN1C[C@H](c2cccc(C(F)(F)F)c2)[C@@H](C(=O)Nc2ccccc2-n2cccn2)C1=O | % | 0 |
| CN1C[C@H](c2ccc(C(F)(F)F)cc2)[C@@H](C(=O)Nc2ccccc2-n2cncn2)C1=O | % | 0 |

* * *

Parameter plant injury at 15.625 g/ha: see the listing below.
test system: corn (Zea mays); assay: Test G Pre-Emergence Protocol; assay type: in vivo; conditions: Zea mays, pre-emergence, 312 h, 15.625 g ai/ha, evaluated after 13 days, read-out: Corn damage rating (100=total damage to plant; 0=no damage to plant)

| compound | test.target | plant injury at 15.625 g/ha [%] |
| --- | --- | --- |
| CN1C[C@@H](c2cc(Cl)nc(C(F)(F)F)c2)[C@H](C(=O)Nc2cccc(F)c2F)C1=O (racemic) [Compound 1485] | corn (Zea mays) | 40 |
| CN1C[C@H](c2ccc(F)c(OCC(F)(F)F)c2)[C@@H](C(=O)Nc2ccccc2F)C1=O (racemic) [Compound 1456] | corn (Zea mays) | 0 |
| CN1C[C@@H](c2ccc(Cl)nc2)[C@H](C(=O)Nc2cccc(F)c2F)C1=O (racemic) [Compound 1462] | corn (Zea mays) | 0 |
| Cc1ccc([C@H]2CN(C)C(=O)[C@@H]2C(=O)Nc2ccc3cccnc3n2)cc1 (racemic) [Compound 1675] | corn (Zea mays) | 0 |
| CN1C[C@H](c2ccc3c(c2)CCO3)[C@@H](C(=O)Nc2cccc(F)c2F)C1=O (racemic) [Compound 1499] | corn (Zea mays) | 0 |
| CN1C[C@H](c2ccc(C(F)(F)F)cc2)[C@@H](C(=O)Nc2cnccc2C#N)C1=O (racemic) [Compound 1760] | corn (Zea mays) | 0 |
| COc1c(F)cc(C2CN(C)C(=O)C2C(=O)Nc2cccc(F)c2F)cc1F (stereo not shown) [Compound 1702] | corn (Zea mays) | 20 |

* * *

tested on: corn (Zea mays); test: Test A postemergence; assay type: in vivo; details: Zea mays, post-emergence, 240 h, 125 g ai/ha, postemergence, visual injury vs untreated controls after approx. 10 d; 0 = no effect, 100 = complete control; read-out: Corn plant response rating (0 to 100 scale)
Description: […]

| molecule | test.target | scale.unit | plant injury at 125 g/ha |
| --- | --- | --- | --- |
| Cc1cc([C@H]2CN(C)C(=O)[C@@H]2C(=O)Nc2cccc(F)c2F)no1 | corn (Zea mays) | % | 0 |
| O=C1NC[C@H](c2cccc(C(F)(F)F)c2)C1C(=O)Nc1c(F)cccc1CO (some centres unmarked) | corn (Zea mays) | % | 0 |
| O=C1NC[C@H](c2cccc(C(F)(F)F)c2)C1C(=O)Nc1ccccc1CO (some centres unmarked) | corn (Zea mays) | % | 0 |
| CSc1ccccc1NC(=O)[C@H]1C(=O)N(C)C[C@@H]1c1ccc(C)cc1 | corn (Zea mays) | % | 0 |
| CN1C[C@H](c2ccc(F)c(C#N)c2)[C@@H](C(=O)Nc2cccc(F)c2F)C1=O | corn (Zea mays) | % | 60 |

* * *

In this section, each of the compounds is paired with its reported pest or weed control at 250 g/ha.
tested on: barnyardgrass (Echinochloa crus-galli); assay: Test B flooded paddy test; format: in vivo; settings: Echinochloa crus-galli, 360 h, Flood, 250 g ai/ha; visually evaluated after 13 to 15 d; read-out: Plant response rating, Barnyardgrass (0 to 100 scale where 0 is no effect and 100 is complete control)

| compound | pest or weed control at 250 g/ha [%] |
| --- | --- |
| O=C1NC[C@H](c2cc(C(F)(F)F)ccn2)[C@H]1C(=O)Nc1cccc(F)c1F (racemic) | 40 |
| Cc1ccncc1NC(=O)[C@H]1C(=O)N(C)C[C@@H]1c1ccc2c(c1)OC(F)(F)O2 | 0 |
| CN1C[C@H](c2cccc(C(F)(F)F)c2)[C@@H](C(=O)Nc2cccnc2F)C1=O | 75 |
| CO[C@]1(C(=O)Nc2cccc(F)c2F)C(=O)N(C)C[C@@H]1c1ccc(C(F)(F)F)cc1 (racemic) | 0 |
| CN1C[C@H](c2ccc(C(F)(F)F)cc2)[C@@H](C(=O)Nc2ccc(F)nc2F)C1=O | 90 |
| O=C1NC[C@H](c2cccc(C(F)(F)F)n2)[C@H]1C(=O)Nc1cccc(F)c1F | 0 |

* * *

We begin with a simple list: items and their reported pest or weed control at 31 g/ha.
test system: pigweed (Amaranthus retroflexus); assay: Test A preemergence; format: in vivo; conditions: Amaranthus retroflexus, pre-emergence, 240 h, Preemergence, 31 g ai/ha; 0 to 100 scale (0 no effect, 100 complete control); read-out: Plant response rating, Pigweed

| smiles.code | pest or weed control at 31 g/ha / % |
| --- | --- |
| Cc1cc(F)cc([C@H]2CN(C)C(=O)[C@@H]2C(=O)Nc2cccc(F)c2C#N)c1 | 0 |
| CSc1ccccc1NC(=O)[C@H]1C(=O)N(C)CC[C@@H]1c1cccc(OC(F)(F)F)c1 | 0 |
| Cc1cc(F)cc([C@H]2CN(C)C(=O)[C@@H]2C(=O)Nc2cccc(F)c2C)c1 | 40 |
| CN1CC[C@H](c2ccc3c(c2)OC(F)(F)O3)[C@@H](C(=O)Nc2cccc(F)c2F)C1=O | 0 |
| CN1C[C@H](c2ccc(C(F)(F)F)c(Br)c2)[C@@H](C(=O)Nc2cccc(F)c2F)C1=O | 0 |

* * *

test system: barnyardgrass (Echinochloa crus-galli); test: Test A postemergence; format: in vivo; conditions: Echinochloa crus-galli, post-emergence, 240 h, 500 g ai/ha, postemergence; 0 to 100 scale, 0 is no effect, 100 is complete control; read-out: Barnyardgrass plant response rating
Recorded pest or weed control at 500 g/ha values for a group of compounds are listed next.

| compound | pest or weed control at 500 g/ha [%] |
| --- | --- |
| O=C1NC[C@H](c2cccc(C(F)(F)F)c2)C1C(=O)Nc1c(F)cccc1CO (some centres unmarked) | 0 |
| CSc1ccccc1NC(=O)[C@H]1C(=O)N(C)CC[C@@H]1c1ccc(C)cc1 | 0 |
| Cc1c(F)cccc1NC(=O)[C@H]1C(=O)N(C)C[C@@H]1c1cc(F)cc(F)c1 | 90 |
| CCc1cc([C@H]2CNC(=O)[C@@H]2C(=O)Nc2cccc(F)c2F)cs1 | 90 |
| Cc1cc([C@H]2CN(C)C(=O)[C@@H]2C(=O)Nc2ccccc2F)on1 | 20 |
| O=C1NC[C@H](c2csc(C(F)F)c2)[C@H]1C(=O)Nc1ccccc1F | 90 |
| CN1CC[C@H](c2cccc(C(F)(F)F)c2)[C@@H](C(=O)Nc2cccc(F)c2Cl)C1=O | 90 |
| CCc1cc([C@H]2CN(C)C(=O)[C@@H]2C(=O)Nc2cccc(F)c2F)cs1 | 90 |

* * *

test system: barnyardgrass (Echinochloa crus-galli); assay: Test A postemergence; type: in vivo; conditions: Echinochloa crus-galli, post-emergence, 240 h, Postemergence, 31 g ai/ha; 0 is no effect, 100 is complete control; read-out: Barnyardgrass plant response rating (0 to 100 scale)
reported.endpoint: pest or weed control at 31 g/ha

| smiles.code | test.target | reported.endpoint | meas.value |
| --- | --- | --- | --- |
| Cc1cccc([C@H]2CN(C)C(=O)[C@@H]2C(=O)Nc2ccc(F)nc2F)c1 | barnyardgrass (Echinochloa crus-galli) | pest or weed control at 31 g/ha | 70% |
| CN1C[C@H](c2ccccc2)[C@@H](C(=O)Nc2cccc(F)c2F)C1=O | barnyardgrass (Echinochloa crus-galli) | pest or weed control at 31 g/ha | 90% |
| Cc1ccc([C@H]2CN(C)C(=O)[C@@H]2C(=O)Nc2cccc(F)n2)cc1 | barnyardgrass (Echinochloa crus-galli) | pest or weed control at 31 g/ha | 70% |
| CC(C)=Cc1cc([C@H]2CN(C)C(=O)[C@@H]2C(=O)Nc2cccc(F)c2F)ccc1C(F)(F)F | barnyardgrass (Echinochloa crus-galli) | pest or weed control at 31 g/ha | 20% |
